Ref: patent US20150315218A1

protocol_notes: Effect of food on oral absorption of IVa in dogs after Iab or IVa capsules
Assay type: in vivo, dog
measurement_conditions: dog, in vivo, po, 20 mg/kg, dogs, IVa Clinical Form Capsules, Fed

# item_smiles, unit_of_measurement, Tmax
data = [
    ("COc1ncc(OC)c2c(C(=O)C(=O)N3CCN(C(=O)c4ccccc4)CC3)c[nH]c12", "h", 4),
]

---

protocol_notes: Single-dose toxicokinetic and tolerability study of prodrugs in dogs
Type: in vivo, dog
measurement_conditions: male, dog, plasma, oral, 46 mg/kg, dog 3101M, day 8, Ibb 46 mg/kg BID dry-filled capsules; read-out: C24h

# item_smiles, concentration at 24 h / µM
data = [
    ("O=C(C(=O)N1CCN(C(=O)c2ccccc2)CC1)c1c[nH]c2c(-n3ccnn3)ncc(F)c12", 10.6),
]

---

protocol_notes: IV and PO pharmacokinetic studies of prodrug salts (Iab, Ibb, Icb) in the monkey, with historical parent data
Assay type: in vivo, cynomolgus monkeys
measurement_conditions: male, cynomolgus monkey, plasma, po; monkey; LLQ = 5 nM; read-out: prodrug detected in plasma after oral administration

# item_smiles, concentration at 15 min
measured = [
    ("COc1cnc(OC)c2c1c(C(=O)C(=O)N1CCN(C(=O)c3ccccc3)CC1)cn2COP(=O)(O)O", "0.018 µM"),
]

---

protocol_notes: Single-dose toxicokinetic and tolerability study of prodrugs in dogs
Format: in vivo, dog
measurement_conditions: male, dog, plasma, po, 25 mg/kg, dog 2101M, day 1, Ibb 25 mg/kg QD dry-filled capsules

# compound, AUC(0-inf) [µM·h]
rows = [
    ("O=C(C(=O)N1CCN(C(=O)c2ccccc2)CC1)c1c[nH]c2c(-n3ccnn3)ncc(F)c12 [IVb]", 259),
]

---

protocol_notes: Single-dose toxicokinetic and tolerability study of prodrugs in dogs
Type: in vivo, dog
measurement_conditions: female, dog, plasma, oral, 92 mg/kg, dog 3201F, day 1, Ibb 92 mg/kg QD dry-filled capsules; read-out: C24h
Procedure: A multi-phase study was conducted to evaluate the tolerability of the prodrug, Iab (monolysine salt) at dosages of 24, 90, or 240 mg/kg (free acid, molar equivalent to 19, 71, or 190 mg/kg of parent IVa, respectively) and the toxicokinetics of lab and IVa (4). Iab was administered to two female dogs/group once daily either as an aqueous solution (24 or 90 mg/kg) or dry-filled capsules (24, 90 [once and twice daily] or 240 mg/kg). […]

# item_smiles, concentration at 24 h
data = [
    ("O=C(C(=O)N1CCN(C(=O)c2ccccc2)CC1)c1c[nH]c2c(-n3ccnn3)ncc(F)c12", "202 nM"),
]

---

protocol_notes: Single-dose toxicokinetic and tolerability study of prodrugs in dogs
Assay type: in vivo, dog
measurement_conditions: IVa in female dogs, Iab 24 mg/kg (19 IVa equiv.), Dry-filled capsule; Dogs #4201, #4202
property_label: Cmax (µM)

# compound, property_label, unit_of_measurement, experimental_result
rows = [
    ("COc1ncc(OC)c2c(C(=O)C(=O)N3CCN(C(=O)c4ccccc4)CC3)c[nH]c12 [IVa]", "Cmax", "µM", 85.6),
]

---

protocol_notes: IV and oral rat PK (MAP) studies A, B, C of phosphate prodrugs and parent studies A1, B1, C1
Format: in vivo, Sprague-Dawley rats
measurement_conditions: male, Sprague-Dawley, rat, plasma, po, 5 mg/kg, AUC 0-24 h (μM * hr), rats, after PO prodrug dosing equivalent to 5 mpk of parent; analyte = label
# maps each entry to its AUC(0-t)

# compound, AUC(0-t) [µM·h]
records = [
    ("COc1cnc(-n2cnc(C)n2)c2[nH]cc(C(=O)C(=O)N3CCN(C(=O)c4ccccc4)CC3)c12 [IVc]", 56),
    ("O=C(C(=O)N1CCN(C(=O)c2ccccc2)CC1)c1c[nH]c2c(-n3ccnn3)ncc(F)c12 [IVb]", 13.7),
    ("COc1ncc(OC)c2c(C(=O)C(=O)N3CCN(C(=O)c4ccccc4)CC3)c[nH]c12 [IVa]", 5.9),
]

---

protocol_notes: Single-dose toxicokinetic and tolerability study of prodrugs in dogs
Format: in vivo, dog
measurement_conditions: female, dog, plasma, po, 90 mg/kg, Table 14: IVa in female dogs, 90 mg/kg (71 IVa equiv.), Formulation Solution; Dogs #1201, #1202

# item_smiles, Cmax
rows = [
    ("COc1ncc(OC)c2c(C(=O)C(=O)N3CCN(C(=O)c4ccccc4)CC3)c[nH]c12", "214 µM"),
]

---

protocol_notes: IV and PO pharmacokinetic studies of prodrug salts (Iab, Ibb, Icb) in the rat, with historical parent data
Assay type: in vivo, Sprague-Dawley rats
measurement_conditions: plasma, oral, 5 mg/kg, read-out: C-24 hr
property_label: concentration at 24 hr (µM)

# molecule, property_label, unit_of_measurement, experimental_result
records = [
    ("COc1cnc(-n2cnc(C)n2)c2[nH]cc(C(=O)C(=O)N3CCN(C(=O)c4ccccc4)CC3)c12 [IVc]", "concentration at 24 hr", "µM", 0.19),
]

---

protocol_notes: Single-dose toxicokinetic and tolerability study of prodrugs in dogs
Format: in vivo, dog
measurement_conditions: female, dog, plasma, oral, 24 mg/kg, IVa, Iab 24 mg/kg Solution; Dogs #1201, #1202; read-out: C24 h
property_label: concentration at 24 h (nM)

# compound, experimental_result
records = [
    ("COc1ncc(OC)c2c(C(=O)C(=O)N3CCN(C(=O)c4ccccc4)CC3)c[nH]c12 [IVa]", 610),
]

---

protocol_notes: Effect of food on oral absorption of IVa in dogs after Iab or IVa capsules
Assay type: in vivo, dog
measurement_conditions: dog, plasma, po, 20 mg/kg, IVa in dogs after Iab dry-filled capsules (20 mg/kg of IVa equivalent), Fed
Description: To study the effect of food on the oral absorption of IVa after administration of Iab and IVa, these two compounds were administered in capsules as solid to a group of three dogs in a cross-over fashion under overnight fasting and fed conditions. There was a one-week washout period between each study. Iab was administered at 200 mg per dog (ca 20 mg/kg) of IVa equivalent; IVa was administered in a clinical capsule formulation at 200 mg per dog (ca 20 mg/kg). […]

# item_smiles, AUC (µM·h)
measured = [
    ("COc1ncc(OC)c2c(C(=O)C(=O)N3CCN(C(=O)c4ccccc4)CC3)c[nH]c12", 422),
]

---

protocol_notes: IV and PO pharmacokinetic studies of prodrug salts (Iab, Ibb, Icb) in the monkey, with historical parent data
Type: in vivo, cynomolgus monkeys
measurement_conditions: cynomolgus monkey, plasma; monkey, historical parent, IV 1 mg/kg; read-out: MRT (hr), IV

# item_smiles, MRT
records = [
    ("COc1ncc(OC)c2c(C(=O)C(=O)N3CCN(C(=O)c4ccccc4)CC3)c[nH]c12", "2.4 h"),
]

---

# maps each entry to its clearance
protocol_notes: IV and PO pharmacokinetic studies of prodrug salts (Iab, Ibb, Icb) in the rat, with historical parent data
Assay type: in vivo, Sprague-Dawley rats
measurement_conditions: male, Sprague-Dawley, plasma, prodrug after IV administration, read-out: CLtot (mL/min/kg), IV
property_label: clearance (mL/min/kg)

# item_smiles, experimental_result
rows = [
    ("O=C(C(=O)N1CCN(C(=O)c2ccccc2)CC1)c1cn(COP(=O)(O)O)c2c(-n3ccnn3)ncc(F)c12", 19),
    ("COc1cnc(OC)c2c1c(C(=O)C(=O)N1CCN(C(=O)c3ccccc3)CC1)cn2COP(=O)(O)O", 14),
]

---

protocol_notes: Oral dose escalation study in rats (Study D of Ica; historical Study E of IVc)
Format: in vivo
measurement_conditions: male, Sprague-Dawley, rat, plasma, po, 25 mg/kg
property_label: Tmax (h)

# item_smiles, experimental_result
measured = [
    ("COc1cnc(-n2cnc(C)n2)c2[nH]cc(C(=O)C(=O)N3CCN(C(=O)c4ccccc4)CC3)c12", 1.7),
]

---

protocol_notes: Single-dose toxicokinetic and tolerability study of prodrugs in dogs
Assay type: in vivo, dog
measurement_conditions: female, dog, plasma, po, 46 mg/kg, dog 3201F, day 8, Icb 46 mg/kg BID dry-filled capsules

# item_smiles, Cmax [µM]
measured = [
    ("COc1cnc(-n2cnc(C)n2)c2[nH]cc(C(=O)C(=O)N3CCN(C(=O)c4ccccc4)CC3)c12", 104),
]

---

protocol_notes: IV and PO pharmacokinetic studies of prodrug salts (Iab, Ibb, Icb) in the monkey, with historical parent data
Assay type: in vivo, cynomolgus monkeys
measurement_conditions: male, cynomolgus monkey, plasma, oral, 4.9 mg/kg; read-out: Bioavailability

# compound, unit_of_measurement, bioavailability
data = [
    ("COc1cnc(-n2cnc(C)n2)c2[nH]cc(C(=O)C(=O)N3CCN(C(=O)c4ccccc4)CC3)c12 [IVc]", "%", 122),
]
